# System: ITK
# MEASUREMENT_PARAMETERS: concentration: 1 μM, replicates: in singlicate; n = 1;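 note: KINOMEscan kinase panel screen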
Kindly supply the reported %Inh values for the records listed here.
Number in %, nothing else.

What measured %Inh goes with CCCCc1nn2ncccc2c1-c1ccnc(Nc2ccc(N3CCN(C)CC3)cc2)n1 ?
5

Thanks! And CN(C)S(=O)(=O)c1cc(-c2ccc3nccc(-c4cccc(S(N)(=O)=O)c4)c3c2)cnc1N ?
16

Thanks! And O=C(Nc1n[nH]c2cc(-c3ccoc3)ccc12)C1CC1 ?
0

Thanks! And COC(=O)Nc1nc2ccc(Oc3ccc(NC(=O)Nc4cc(C(F)(F)F)ccc4F)cc3)cc2n1C.Cl ?
0

Thanks! And Cl.Cl.NCC(NC(=O)c1cc(-c2ccccc2)c(-c2ccnc3[nH]ccc23)s1)c1ccccc1 (stereo not drawn) ?
11

Thanks! And Cc1ccc(F)c(C(=O)Nc2cccc(-c3nn4ccccc4c3-c3ccnc(Nc4cccc(F)c4)n3)c2)c1F ?
43

Thanks! And Cc1ccc(C)c(NC(=O)NC2CCN(c3ccnc(Nc4ccc(F)cc4)n3)C2)c1 (stereo not drawn) ?
5

Thanks! And Cn1cc(-c2ccc3c(c2)CCN3C(=O)Cc2cccc(Cl)c2)c2c(N)ncnc21 ?
19

Thanks! And COc1cccc(C(=O)Nc2cccc(Oc3ccc4nc(NC(=O)C5CC5)cn4n3)c2)c1 ?
20

Thanks! And Cl.Cl.NCC(C(=O)Nc1cc(Br)c(-c2ccnc3[nH]ccc23)s1)c1ccccc1 (stereo not drawn) ?
12

Thanks! And Nc1ncc(-c2cccnc2)c2scc(-c3ccc4c(c3)CCN4C(=O)Cc3ccccc3)c12 ?
18

Thanks! And c1ccc(-c2cnc3nccnn23)cc1 ?
2

Thanks! And Nc1n[nH]c2cnc(-c3ccccc3)cc12 ?
13

Thanks! And COc1cccc(-c2ccc3c(NC(=O)C4CC4)n[nH]c3n2)c1 ?
6

Thanks! And COc1ccc(-c2coc3ccc(-c4nnc(SCc5ccc(OC)c(C(F)(F)F)c5)o4)cc23)cc1 ?
25

====

# Tested on: TRKC
# Construct: gene NTRK3
# MEASUREMENT_PARAMETERS: concentration: 1 μM, replicates: in singlicate; n = 1
Kindly supply the reported %Inh values for the records listed here.
Number in %, nothing else.

What measured %Inh goes with CN1CCN(CCCNc2nccc(-c3c(-c4ccc(F)cc4)nn4cc(C(F)(F)F)ccc34)n2)CC1 [GW621581] ?
5

Thanks! And O=C(Nc1cccc(-c2nn3ncccc3c2-c2ccnc(Nc3ccccc3)n2)c1)c1c(F)cccc1F [GSK198271] ?
0

Thanks! And COCCOCCOc1cc2ncc3c4ccc(C#N)cc4[nH]c3c2cc1OC ?
78

Thanks! And O=C(Nc1cccc(-c2nn3ccccc3c2-c2ccnc(Nc3cccc(C(F)(F)F)c3)n2)c1)c1c(F)cccc1F [GSK292658] ?
0

Thanks! And Cl.NC(=O)c1cccc(Nc2nccc(Nc3ccc(Oc4c(Cl)cccc4Cl)c(Cl)c3)n2)c1 [GW659009] ?
11

Thanks! And O=C(NC1CCN(c2ccnc(Nc3ccc(F)cc3)n2)C1)c1cc2ccccc2s1 (centres unmarked) [GSK1379716] ?
8

Thanks! And COc1cccc(-c2ccc3c(NC(=O)C4CC4)n[nH]c3n2)c1 [SB-710903] ?
58

Thanks! And O=C(Nc1n[nH]c2cc(-c3ccoc3)ccc12)C1CC1 [SB-738481] ?
49

Data provenance is paper PMC5540273.
